Where these numbers come from: paper PMC11999280

Test system: mCherry-GAL9 expressing U2OS cells
Assay: GAL9 recruitment assay, U2OS
Type: cell-based
Details: EEE 0.62 µM, calculated mean from >3 independent exp.
Description: Experiments assessing GAL9 localization as an indicator for endosomal remodeling were performed as previously described[15] using 8× stablemCherry-GAL9 expressing cell lines, SHSY5Y, U2OS, 16HBE, NCI-H358, HuH7, HepG2, HEK293, and HeLa. For mCherry-GAL9 recruitment, 3,000 or 6,500 cells/well (depending upon cell line) were seeded into 384-well CellCarrier Ultra plates 24 h prior to treatment (PerkinElmer, catalog no. 6007558). […]
assay_endpoint: Gal9 response compared to reference
Give the value as a plain number.

COc1nn(C2CCN(C(C)C)CC2)cc1Nc1ncc(F)c(-n2ccc3c(C#N)cccc32)n1 = 0.013
COc1nn(C2CCNCC2)cc1Nc1ncc(F)c(-c2c[nH]c3ccccc23)n1 = 0.012
COc1nn(C2CCN(C)CC2)cc1Nc1ncc(F)c(-n2ccc3c(C#N)cccc32)n1 = 0.013
CCOc1nn(C2CCN(C)CC2)cc1Nc1ncc(C(F)(F)F)c(-c2c[nH]c3ccccc23)n1 = 0.009
COc1nn(C2CCN(C)CC2)cc1Nc1ncc(Cl)c(-n2ccc3c(C#N)cccc32)n1 = 0.011

For the record CCN1CCC(n2cc(Nc3ncc(F)c(-n4ccc5c(C#N)cccc54)n3)c(OC)n2)CC1 , what value of Gal9 response compared to reference is listed for mCherry-GAL9 expressing U2OS cells? 0.015

For the record COc1nn(C2CCN(C)CC2)cc1Nc1ncc(F)c(-n2ccc3ccc(C#N)cc32)n1 , what value of Gal9 response compared to reference is listed for mCherry-GAL9 expressing U2OS cells? 0.013

For the record CCCN1CCC(n2cc(Nc3ncc(F)c(-n4ccc5c(C#N)cccc54)n3)c(OC)n2)CC1 , what value of Gal9 response compared to reference is listed for mCherry-GAL9 expressing U2OS cells? 0.012

* * *

Test system: mCherry-GAL9 expressing HuH7 cells
Test: GAL9 recruitment assay, HuH7
Type: cell-based
Settings: EEE 10 µM, calculated mean from >3 independent exp.
Rule: Gal9 response compared to reference below 0.1 gives class 1. Equal to or above 0.1 gives class 0.

Observe how each entry below is paired with its result.
COc1nn(C2CCN(C)CC2)cc1Nc1ncc(Cl)c(-n2ccc3c(C#N)cccc32)n1 = class 0
CCN1CCC(n2cc(Nc3ncc(F)c(-n4ccc5c(C#N)cccc54)n3)c(OC)n2)CC1 = class 0
COc1nn(C2CCNCC2)cc1Nc1ncc(F)c(-c2c[nH]c3ccccc23)n1 = class 1
COc1nn(C2CCN(C)CC2)cc1Nc1ncc(C(F)(F)F)c(-n2ccc3c(C#N)cccc32)n1 = class 1
COc1nn(C2CCN(C(C)C)CC2)cc1Nc1ncc(F)c(-n2ccc3c(C#N)cccc32)n1 = class 0
COc1nn(C2CCN(C)CC2)cc1Nc1ncc(F)c(-n2ccc3ccc(C#N)cc32)n1 = class 0
CCOc1nn(C2CCN(C)CC2)cc1Nc1ncc(F)c(-n2ccc3c(C#N)cccc32)n1 = class 1
CCCN1CCC(n2cc(Nc3ncc(F)c(-n4ccc5c(C#N)cccc54)n3)c(OC)n2)CC1 = class 0
COc1nn(C2CCNCC2)cc1Nc1ncc(C(F)(F)F)c(-c2c[nH]c3ccccc23)n1 = class 0
COc1nn(C2CCN(C)CC2)cc1Nc1ncc(F)c(-n2ccc3c(C#N)cccc32)n1 = class 0

State whether 0.1 exceeds Gal9 response compared to reference recorded for CCOc1nn(C2CCN(C)CC2)cc1Nc1ncc(C(F)(F)F)c(-c2c[nH]c3ccccc23)n1 . class 1

State whether 0.1 exceeds Gal9 response compared to reference recorded for COc1nn(C2CCNCC2)cc1Nc1ncc(F)c(-n2ccc3c(C#N)cccc32)n1 . class 1
